- measurement target: Muscarinic acetylcholine receptor M5 (Homo sapiens, UniProt P08912)
- Sequence (P08912 whole entry): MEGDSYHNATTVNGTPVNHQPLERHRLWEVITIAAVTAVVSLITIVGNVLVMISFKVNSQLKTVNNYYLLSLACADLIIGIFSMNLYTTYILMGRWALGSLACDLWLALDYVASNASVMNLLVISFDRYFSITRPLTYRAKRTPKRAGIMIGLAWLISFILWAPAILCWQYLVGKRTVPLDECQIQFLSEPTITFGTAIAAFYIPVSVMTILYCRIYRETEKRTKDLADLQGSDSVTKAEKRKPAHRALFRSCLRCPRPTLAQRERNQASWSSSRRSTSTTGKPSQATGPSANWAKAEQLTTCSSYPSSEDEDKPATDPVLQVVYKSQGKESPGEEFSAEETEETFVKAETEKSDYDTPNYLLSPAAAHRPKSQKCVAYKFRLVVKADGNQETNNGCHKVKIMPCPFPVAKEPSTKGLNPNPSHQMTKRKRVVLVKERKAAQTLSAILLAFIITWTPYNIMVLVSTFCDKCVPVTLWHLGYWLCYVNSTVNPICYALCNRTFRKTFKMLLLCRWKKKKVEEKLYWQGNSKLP
- test: Effective concentration was evaluated against Muscarinic acetylcholine receptor M5 expressed in A9 L cells
assay endpoint: pEC50
Remember the convention: pEC50 equals -log10 of concentration in molar.

>>> print(df.to_string())
                             smiles_entry  quantitative_readout
0  CC(=O)OCCOCCOCCOCCOc1nsnc1C1=CCCN(C)C1                  5.90

Proceed to the following item.
# input Could you tell me which pEC50 is on file for `COc1nsnc1OCCOCCOCCOCCOc1nsnc1C1=CCCN(C)C1` ?
# output 3.70

Origin of values: ChEMBL document CHEMBL1145111
